- measured.target: ALDH1A3 (Homo sapiens)
- Sequence (P47895 1-512): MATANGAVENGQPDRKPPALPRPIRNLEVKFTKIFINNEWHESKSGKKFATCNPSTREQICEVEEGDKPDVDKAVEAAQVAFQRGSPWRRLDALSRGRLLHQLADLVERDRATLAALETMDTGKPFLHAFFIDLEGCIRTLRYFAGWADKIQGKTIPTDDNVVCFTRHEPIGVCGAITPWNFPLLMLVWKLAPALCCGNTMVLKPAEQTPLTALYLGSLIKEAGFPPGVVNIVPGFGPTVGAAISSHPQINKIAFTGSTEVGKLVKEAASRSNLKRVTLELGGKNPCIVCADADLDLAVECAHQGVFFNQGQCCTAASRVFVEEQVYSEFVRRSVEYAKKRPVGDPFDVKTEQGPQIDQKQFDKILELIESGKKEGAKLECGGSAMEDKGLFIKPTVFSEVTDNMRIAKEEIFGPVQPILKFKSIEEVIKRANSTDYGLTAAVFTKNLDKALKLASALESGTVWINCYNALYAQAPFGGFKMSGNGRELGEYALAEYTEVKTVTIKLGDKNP
- measurement.protocol: ALDH1A3 cellular assay (ALDEFLUOR) in WM266.4 melanoma cells
- Type: cell-based
- particulars: WM266.4 cells; 60 min incubation; percentage of ALDH-positive cells
pIC50: −log10 of the molar value.
measurement.kind: pIC50

INSERT INTO assay_data (compound, result) VALUES
  ('O=C1COc2cc(NC(=O)c3scnc3-c3cccc(F)c3)ccc2N1', '> 7.00'),
  ('CN(CCOc1ccc2c(c1)CCC(=O)N2)Cc1cccc(F)c1', '6.00 to 7.00'),
  ('O=C1CCc2cc(OCCN(CCO)Cc3cccc(F)c3)ccc2N1', '> 7.00'),
  ('COc1cccc(C2CCCN2CCOc2ccc3c(c2)CCC(=O)N3)c1 (centres unmarked)', '5.00 to 6.00');

Now for the compound whose pIC50 we want.
Answer with the recorded pIC50 of O=C1CCc2cc(OCCN3CCCC3c3cccc(F)c3)ccc2N1 (centres unmarked) only.
> 7.00

----------
Documented pIC50 across a set of compounds
- measured.target: ALDH1A3 (Homo sapiens, UniProt P47895)
- Sequence (P47895 1-512): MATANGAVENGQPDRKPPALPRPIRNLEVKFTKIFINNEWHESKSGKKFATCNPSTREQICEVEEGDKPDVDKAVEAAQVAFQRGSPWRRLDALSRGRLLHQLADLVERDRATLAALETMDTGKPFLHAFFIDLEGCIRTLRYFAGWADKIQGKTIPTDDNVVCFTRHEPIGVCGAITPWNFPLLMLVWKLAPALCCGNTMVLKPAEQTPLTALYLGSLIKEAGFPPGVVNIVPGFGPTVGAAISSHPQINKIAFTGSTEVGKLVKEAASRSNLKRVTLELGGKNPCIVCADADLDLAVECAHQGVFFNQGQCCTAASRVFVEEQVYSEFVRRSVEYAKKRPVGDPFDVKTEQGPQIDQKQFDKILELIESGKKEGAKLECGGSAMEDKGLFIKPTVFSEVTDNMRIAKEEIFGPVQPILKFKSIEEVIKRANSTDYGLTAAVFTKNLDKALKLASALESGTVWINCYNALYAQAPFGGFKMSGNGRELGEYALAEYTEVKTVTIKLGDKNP
- measurement.protocol: Primary biochemical assay, NAD(P)H-Glo Detection System
- Parameters: His-tag; made in house; host or cells: E. coli Rosetta (DE3)
- particulars: 30 min pre-incubation, propionaldehyde and NAD at Km
pIC50: −log10 of the molar value.

Past entries and their recorded results:
INSERT INTO results (compound, result) VALUES
  ('O=C1COc2cc(NC(=O)c3scnc3-c3cccc(F)c3)ccc2N1 [ALDHI-1016]', '6.00 to 7.00'),
  ('O=C1CCc2cc(OCCN3CCCCC3c3cccc(F)c3)ccc2N1 (centres unmarked) [ALDHI-2038]', '> 7.00'),
  ('O=C1CCc2cc(OCCN3CC(F)(F)CC3c3cccc(F)c3)ccc2N1 (centres unmarked) [ALDHI-2053]', '> 7.00');

Please supply the value of reported pIC50 for the item CC1(C)Oc2cc(OCCN3CCCC3c3cccc(F)c3)ccc2NC1=O (centres unmarked) [ALDHI-2043]
6.00 to 7.00

Provide pIC50 value for the following compound: O=C1CCc2cc(NC(=O)c3scnc3-c3ccccc3F)ccc2N1 [ALDHI-1021]
> 7.00
